Measured liver extraction rate (ERh), listed per entry.
# measurementDescription: Liver microsome metabolic stability in vitro (SD rat)
# conditionSet: SD rat liver microsomes
testReadout: liver extraction rate (ERh)

[[record]]
molecule = "O=c1ccc2c([C@@H](O)CNCCCCCCCCCN3CCC(Cn4cnc([C@](O)(c5ccccc5)C5CCCCC5)n4)CC3)ccc(O)c2[nH]1 [reference compound]"
observedresult = 0.42

[[record]]
molecule = "OCc1cc([C@@H](O)CNCCCOc2ccc(OCCC[N+]34CCC(CC3)[C@@H](OC[C@@](O)(c3ccccc3)C3CCCC3)C4)cc2)ccc1O.[Br-]"
observedresult = 0.97

[[record]]
molecule = "O=CNc1cc([C@@H](O)CNCCCOc2ccc(OCCC[N+]34CCC(CC3)[C@@H](OC[C@@](O)(c3ccccc3)C3CCCC3)C4)cc2)ccc1O"
observedresult = 0.96

[[record]]
molecule = "O=c1ccc2c([C@@H](O)CNCCCOc3ccc(OCCC[N+]45CCC(CC4)[C@@H](OC[C@@](O)(c4ccccc4)C4CCCC4)C5)cc3)ccc(O)c2[nH]1.[Br-]"
observedresult = 0.93

[[record]]
molecule = "CC(NC[C@H](O)c1ccc(O)c(CO)c1)c1ccc(OCCC[N+]23CCC(CC2)[C@@H](OC[C@@](O)(c2ccccc2)C2CCCC2)C3)cc1 (stereo partly drawn)"
observedresult = 0.96

[[record]]
molecule = "CC(NC[C@H](O)c1ccc(O)c(NC=O)c1)c1ccc(OCCC[N+]23CCC(CC2)[C@@H](OC[C@@](O)(c2ccccc2)C2CCCC2)C3)cc1.[Br-] (stereo partly drawn)"
observedresult = 0.94


----------
# Tested on: bronchoconstriction response in the trachea of guinea pig induced by Mch
# measurementDescription: Bronchoconstriction induced by methacholine (Mch) in anaesthetized guinea pigs, airway dripping (Raw, Cdyn)
# conditionSet: 1 μg/kg airway dripping, Mch 10 μg/kg iv
Measured inhibitory rate on airway resistance increase, listed per entry.
testReadout: inhibitory rate on airway resistance increase (%)

[[record]]
molecule = "COc1cc(C(C)NC[C@H](O)c2ccc(O)c(CO)c2)ccc1OCCC[N+]12CCC(CC1)[C@@H](OC[C@@](O)(c1ccccc1)C1CCCC1)C2.[Br-] (stereo partly shown)"
testedsystem = "bronchoconstriction response in the trachea of guinea pig induced by Mch"
observedresult = 92.1

[[record]]
molecule = "OCc1cc([C@@H](O)CNCCOCCCOCC[N+]23CCC(CC2)[C@@H](OC[C@@](O)(c2ccccc2)C2CCCC2)C3)ccc1O.[Br-]"
testedsystem = "bronchoconstriction response in the trachea of guinea pig induced by Mch"
observedresult = 91.6

[[record]]
molecule = "CC(C)(Cc1ccc(OCC[N+]23CCC(CC2)[C@@H](OC[C@@](O)(c2ccccc2)C2CCCCC2)C3)cc1)NC[C@H](O)c1ccc(O)c(NC=O)c1.[Br-]"
testedsystem = "bronchoconstriction response in the trachea of guinea pig induced by Mch"
observedresult = 91.9

[[record]]
molecule = "COc1cc(NC(=O)CC[N+]23CCC(CC2)[C@@H](OC[C@@](O)(c2ccccc2)C2CCCC2)C3)c(Cl)cc1CNC[C@H](O)c1ccc(O)c(NC=O)c1.[Br-]"
testedsystem = "bronchoconstriction response in the trachea of guinea pig induced by Mch"
observedresult = 92.6


----------
# testedSystem: human recombinant M1 receptor (Homo sapiens, UniProt P11229)
# Sequence (P11229 whole entry): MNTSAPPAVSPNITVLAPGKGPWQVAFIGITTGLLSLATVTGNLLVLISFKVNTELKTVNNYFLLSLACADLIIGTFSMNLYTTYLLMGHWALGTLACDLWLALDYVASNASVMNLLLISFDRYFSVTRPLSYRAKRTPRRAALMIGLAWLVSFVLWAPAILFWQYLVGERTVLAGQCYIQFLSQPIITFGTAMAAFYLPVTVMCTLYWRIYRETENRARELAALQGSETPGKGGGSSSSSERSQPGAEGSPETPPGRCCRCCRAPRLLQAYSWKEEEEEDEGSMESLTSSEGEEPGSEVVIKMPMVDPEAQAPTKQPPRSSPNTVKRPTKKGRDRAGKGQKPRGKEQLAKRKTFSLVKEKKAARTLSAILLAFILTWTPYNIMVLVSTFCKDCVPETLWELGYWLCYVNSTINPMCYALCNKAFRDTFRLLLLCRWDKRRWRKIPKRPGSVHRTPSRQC
# measurementDescription: biochemical
# Type: binding
# conditionSet: 3H-QNB […], 25° C., 5 h; read-out: hM1Ki
testReadout: Ki (nM)

[[record]]
compound = "O=CNc1cc([C@@H](O)CNCc2c(Cl)cc(OCCC[N+]34CCC(CC3)[C@@H](OC[C@](O)(c3ccccc3)C3CCCC3)C4)cc2Cl)ccc1O.[Br-] [Compound 59]"
testreadout = "Ki"
observedresult = 0.283

